Procedure Details: APR_HepG2_p53Act_72hr: Apredica 72-hour HepG2 Assay for p53 Activation (AID 2282923);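 also: average cellular p53 protein immunofluorescence intensity in HepG2 cells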
Particulars: high-content imaging, actives raise or lower the signal
The source made the active and inactive calls. The calls were made as follows: active = hit-call score of the fitted dose curve at least 0.9, where 1 is the maximum; inactive = score below 0.9.
Assign a class; possible classes are active, inactive

Below are worked cases with known answers.
CCCCCCCCC(=O)O | inactive
O=C(/C=C/c1ccc(O)cc1)CC(=O)/C=C/c1ccc(O)cc1 | inactive
CC[C@H](c1ccc(O)cc1)[C@@H](CC)c1ccc(O)cc1 | inactive
COc1cc(CCC(=O)CC(=O)CCc2ccc(O)c(OC)c2)ccc1O | active

Input line: Fill in: this test's call for `Cc1cc(C)c(O)c(C)c1` is ___
Output line: inactive

Input line: Recorded test call requested for `CCCCCCCCOC(=O)CCCCCCCCC(=O)OCCCCCCCC`
Output line: inactive

Input line: Tell me the assay call for `OCCC(F)(F)C(F)(F)C(F)(F)C(F)(F)C(F)(F)C(F)(F)F` please.
Output line: inactive

Input line: Hi, do you know how `CCCCCCCCCCCCN1CCCC1=O` came out in this test?
Output line: active

Input line: I would be grateful if you could indicate the recorded call for `CN(C)C=O` .
Output line: inactive

Input line: What was the test verdict on CCc1ccc(CCOc2ccc(CC3SC(=O)NC3=O)cc2)nc1 (stereo not drawn) ?
Output line: inactive

Input line: Could you kindly confirm the outcome this assay logged for `CC1=C(/C=C/C(C)=C/C=C/C(C)=C/C(=O)O)C(C)(C)CCC1` ?
Output line: inactive

Input line: Record lookup: outcome of this test for `COC(=O)CCCCC(=O)OC` ?
Output line: inactive

Input line: Please share the test call associated with `CCCCC[C@H](O)CC(=O)CCc1ccc(O)c(OC)c1` .
Output line: inactive
